Values from paper PMC10786891

Item-by-item account of pKd
# tested_on: T1, EsCas13d, nuclease-dead (Eubacterium siraeum, UniProt B0MS50, R295A;H300A;R849A;H854A)
# T1 sequence: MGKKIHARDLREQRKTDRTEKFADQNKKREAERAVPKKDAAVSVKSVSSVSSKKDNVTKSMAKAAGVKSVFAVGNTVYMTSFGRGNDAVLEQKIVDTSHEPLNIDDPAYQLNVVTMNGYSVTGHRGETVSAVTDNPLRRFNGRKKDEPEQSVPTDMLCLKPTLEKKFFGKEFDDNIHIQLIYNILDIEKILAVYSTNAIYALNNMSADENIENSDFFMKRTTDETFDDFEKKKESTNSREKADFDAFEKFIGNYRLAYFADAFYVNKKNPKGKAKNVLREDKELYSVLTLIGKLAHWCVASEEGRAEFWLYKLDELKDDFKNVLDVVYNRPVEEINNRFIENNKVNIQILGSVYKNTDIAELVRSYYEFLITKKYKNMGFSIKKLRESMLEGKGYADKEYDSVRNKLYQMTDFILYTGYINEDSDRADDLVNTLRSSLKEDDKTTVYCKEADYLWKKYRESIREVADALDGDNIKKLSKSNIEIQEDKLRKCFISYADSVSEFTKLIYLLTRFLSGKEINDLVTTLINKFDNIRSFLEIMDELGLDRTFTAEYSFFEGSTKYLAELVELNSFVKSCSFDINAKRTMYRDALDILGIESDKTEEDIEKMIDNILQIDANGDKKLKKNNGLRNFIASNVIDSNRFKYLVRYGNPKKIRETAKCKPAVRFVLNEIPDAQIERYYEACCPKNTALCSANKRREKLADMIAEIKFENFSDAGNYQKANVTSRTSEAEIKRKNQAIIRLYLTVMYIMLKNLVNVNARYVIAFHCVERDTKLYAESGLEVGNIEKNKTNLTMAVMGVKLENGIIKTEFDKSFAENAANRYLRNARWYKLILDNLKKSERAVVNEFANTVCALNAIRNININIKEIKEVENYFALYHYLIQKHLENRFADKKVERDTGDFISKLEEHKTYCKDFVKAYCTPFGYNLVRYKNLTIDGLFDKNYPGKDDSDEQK
# experimental_details: crRNA (strand 1, pre-loaded); Mg2+; 40 mM Tris-HCl pH 7.5, 150 mM NaCl, 6 mM MgCl2, 1 mM DTT, 0.1% Tween-20, 0.2 mg/ml BSA; 25 C; 10 min per concentration, then washed
# condition_summary: tags: His6-TwinStrep-SUMO cleaved; N-terminal SNAP kept (SNAP-Surface 488); label: 3' end held by stalled T7 RNA polymerase
# pKd is unitless: minus log10 of the molar concentration; print number only

The following binders have reported results that may help.
target 1 G13C,G15C (mixed) RNA 1: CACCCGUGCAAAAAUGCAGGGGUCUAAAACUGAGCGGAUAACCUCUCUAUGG RNA 2: GGGAAUGGAUCCACAUCUACGAAUUCGUACCAUAGACACGUUAUCCGCUCACCGAGAUCGGAAGAGCACACGU | 7.28
target 1 MT 5'PFS GCG 3'PFS UAU (mixed) RNA 1: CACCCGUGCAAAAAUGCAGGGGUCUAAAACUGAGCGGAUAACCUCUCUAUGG RNA 2: GGGAAUGGAUCCACAUCUACGAAUUCGCGCCAUAGAGAGGUUAUCCGCUCAUAUAGAUCGGAAGAGCACACGU | 7.91
target 1 MT 5'PFS AGG 3'PFS ACG (mixed) RNA 1: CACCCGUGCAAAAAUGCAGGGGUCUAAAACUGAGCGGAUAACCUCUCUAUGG RNA 2: GGGAAUGGAUCCACAUCUACGAAUUCAGGCCAUAGAGAGGUUAUCCGCUCAACGAGAUCGGAAGAGCACACGU | 7.39
target 1 insU 3' of 13,insC 3' of 8 (mixed) RNA 1: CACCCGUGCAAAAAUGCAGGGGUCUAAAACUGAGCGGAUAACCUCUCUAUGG RNA 2: GGGAAUGGAUCCACAUCUACGAAUUCGUACCAUAGAGAGUGUUAUCCCGCUCACCGAGAUCGGAAGAGCACACGU | 7.83

Form field: reported pKd of target 1 insA 3' of 17,insU 3' of 17 (mixed) RNA 1: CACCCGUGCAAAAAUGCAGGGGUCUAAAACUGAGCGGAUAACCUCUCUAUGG RNA 2: GGGAAUGGAUCCACAUCUACGAAUUCGUACCAUAGAUAGAGGUUAUCCGCUCACCGAGAUCGGAAGAGCACACGU
7.87

Another: target 1 U10G,G15A (mixed) RNA 1: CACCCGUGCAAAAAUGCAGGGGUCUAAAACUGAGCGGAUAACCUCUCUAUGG RNA 2: GGGAAUGGAUCCACAUCUACGAAUUCGUACCAUAGAAAGGUGAUCCGCUCACCGAGAUCGGAAGAGCACACGU
7.28

Another: target 1 MT 5'PFS GCU 3'PFS CAU (mixed) RNA 1: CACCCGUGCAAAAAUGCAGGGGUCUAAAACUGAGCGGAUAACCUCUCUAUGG RNA 2: GGGAAUGGAUCCACAUCUACGAAUUCGCUCCAUAGAGAGGUUAUCCGCUCACAUAGAUCGGAAGAGCACACGU
7.29
